B1: Ankyrin-3, residues 4094 to 4171; numbered along this chain, Q12955 (parent)
chain: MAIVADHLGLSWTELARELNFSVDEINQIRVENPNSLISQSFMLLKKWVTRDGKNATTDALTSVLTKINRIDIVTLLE

Variants of: B1
Assay: abundance fitness (aPCA) (normalised: wild type 0, dead -1); higher = more abundant; growth selection in yeast, the domain comes from the species named
Conditions: Homo sapiens
Could you please report measured abundance fitness for the items listed next?

Dear colleague, I am looking for the recorded abundance fitness of the following variant: S11G -0.261

# get_value(readout='abundance fitness', item= S22Y ) -0.646

Fill in: abundance fitness of S22C is ___ 0.048

What value of measured abundance fitness is listed for L77S ? -0.526

What value of abundance fitness has been recorded for this entry: G53V -0.672

What value of abundance fitness has been reported for the following variant? N69V -0.928

abundance fitness for E32D ? 0.011

I'd like to know its abundance fitness. The variant in question is S11E -0.326

I'd like to know its abundance fitness. The variant in question is I71V 0.015

Using the record for V64N , report its abundance fitness. -0.236

Would you mind telling me what abundance fitness value was observed for H7P ? -0.881

Give the measured abundance fitness of N55H . -0.058

abundance fitness for T75V ? -0.112

Using the record for L65Q , report its abundance fitness. -1.05

Reported abundance fitness for T57V : what is it? -0.124

Look up abundance fitness for this variant: T50V -0.036

// returns reported abundance fitness for input K46I -0.581
